- Test Protocol: Mouse pharmacokinetic study of oral GE with and without ketoconazole, plasma with and without β-glucuronidase treatment
- Format: in vivo, male mice (C57BL6J)
- Condition Description: GE administered group, mouse plasma; 0.167 h
Parameter Measured: Concentration Ratio (Total/Free) of GE Phenolics

1: CCCCCCCC(O)CC(=O)CCc1ccc(O)c(OC)c1 (stereo not shown)
2: CCCCCCCCCC(O)CC(=O)CCc1ccc(O)c(OC)c1 (stereo not shown) [10G, 10-gingerol]
3: CCCCC[C@H](O)CC(=O)CCc1ccc(O)c(OC)c1
4: CCCCC/C=C/C(=O)CCc1ccc(O)c(OC)c1
stdin: Write the entries in order, lowest recorded Concentration Ratio (Total/Free) of GE Phenolics first. Use the labels to give the requested order.
stdout: 3, 2, 4, 1

###

- Test Protocol: Mouse pharmacokinetic study of oral GE with and without ketoconazole, plasma with and without β-glucuronidase treatment
- Assay type: in vivo, male mice (C57BL6J)
- Condition Description: male, C57BL6J; mouse plasma; 250 mg/kg GE with 50 mg/kg ketoconazole oral; 8 h; −βgd
Parameter Measured: concentration at 8 h (ng/mL)

Below, each entry is followed by its recorded concentration at 8 h result.
stdin: Give the reported concentration at 8 h for this compound. CCCCC/C=C/C(=O)CCc1ccc(O)c(OC)c1 [6S, 6-shogaol]
stdout: 0

stdin: Give the reported concentration at 8 h for this compound. CCCCCCCC(O)CC(=O)CCc1ccc(O)c(OC)c1 (stereo not shown) [8G, 8-gingerol]
stdout: 1.17

1: CCCCCCCCCC(O)CC(=O)CCc1ccc(O)c(OC)c1 (stereo not shown) [10G, 10-gingerol]
2: CCCCC[C@H](O)CC(=O)CCc1ccc(O)c(OC)c1 [6G, 6-gingerol]
stdin: Compare reported concentration at 8 h values for 1 and 2 . Which is lower? When you have decided, please share the label of that item.
stdout: 1
(1: 3.71 ng/mL, 2: 10.4 ng/mL)

###

- Test Protocol: Mouse pharmacokinetic study of oral GE with and without ketoconazole, plasma with and without β-glucuronidase treatment
- Format: in vivo, male mice (C57BL6J)
- Condition Description: male, C57BL6J; mouse plasma; 250 mg/kg GE with 50 mg/kg ketoconazole oral; 4 h; −βgd
Parameter Measured: concentration at 4 h (ng/mL)

stdin: Give the reported concentration at 4 h for this compound. CCCCCCCCCC(O)CC(=O)CCc1ccc(O)c(OC)c1 (stereo not shown) [10G, 10-gingerol]
stdout: 6.52

I: CCCCC[C@H](O)CC(=O)CCc1ccc(O)c(OC)c1
II: CCCCCCCC(O)CC(=O)CCc1ccc(O)c(OC)c1 (stereo not shown)
III: CCCCC/C=C/C(=O)CCc1ccc(O)c(OC)c1
stdin: Arrange items by their concentration at 4 h values in increasing order. Use the labels to give the requested order.
stdout: III, II, I
(III: 0 ng/mL, II: 2.25 ng/mL, I: 5.87 ng/mL)

###

- Test Protocol: Mouse pharmacokinetic study of oral GE with and without ketoconazole, plasma with and without β-glucuronidase treatment
- Format: in vivo, male mice (C57BL6J)
- Condition Description: GE administered group, mouse plasma; 0.087 h
- Procedure: A solution formulation of GE was prepared by using 5% ethanol, 5% Tween 80, 40% polyethylene glycol, and 50% corn oil. The dose volume was 10 mL/kg and the dose administered was 250 mg/kg GE. […] To confirm the presence of GE glucuronide conjugates, plasma (100 μL) was treated with βgd (20 μL, 500 units) and incubated at 37 °C for 1 h. Each sample was analyzed twice with and without β-gd treatment. […]
Parameter Measured: Concentration Ratio (Total/Free) of GE Phenolics

stdin: Give the reported Concentration Ratio (Total/Free) of GE Phenolics for this compound. CCCCC/C=C/C(=O)CCc1ccc(O)c(OC)c1
stdout: 48

A: CCCCCCCCCC(O)CC(=O)CCc1ccc(O)c(OC)c1 (stereo not shown) [10G, 10-gingerol]
B: CCCCC[C@H](O)CC(=O)CCc1ccc(O)c(OC)c1
stdin: Compare reported Concentration Ratio (Total/Free) of GE Phenolics values for A and B . Which is lower? When you have decided, please share the label of that item.
stdout: B

###

- Test Protocol: pH dependent kinetic solubility in hydrochloride, citrate and phosphate buffers
- Type: physicochemical
- Condition Description: 23 °C, simulated gastric fluid, kinetic from dmso stock; pH 2, hydrochloride buffer; tested 10 to 100 µM; n = 2
Parameter Measured: solubility at 2 h

Below, each entry is followed by its recorded solubility at 2 h result.
stdin: Give the reported solubility at 2 h for this molecule. CCCCC[C@H](O)CC(=O)CCc1ccc(O)c(OC)c1
stdout: > 100 µM

stdin: Give the reported solubility at 2 h for this molecule. CCCCC/C=C/C(=O)CCc1ccc(O)c(OC)c1
stdout: < 10 µM

stdin: Give the reported solubility at 2 h for this molecule. CCCCCCCC(O)CC(=O)CCc1ccc(O)c(OC)c1 (stereo not shown)
stdout: > 100 µM

Turning to the following molecule.
stdin: Give the reported solubility at 2 h for this molecule. CCCCCCCCCC(O)CC(=O)CCc1ccc(O)c(OC)c1 (stereo not shown) [10G, 10-gingerol]
stdout: < 10 µM

###

- Test Protocol: Mouse pharmacokinetic study of oral GE with and without ketoconazole, plasma with and without β-glucuronidase treatment
- Type: in vivo, male mice (C57BL6J)
- Condition Description: male, C57BL6J; mouse plasma; 250 mg/kg GE with 50 mg/kg ketoconazole oral; 0.167 h; −βgd
Parameter Measured: concentration at 0.167 h (ng/mL)

Below, each entry is followed by its recorded concentration at 0.167 h result.
stdin: Give the reported concentration at 0.167 h for this compound. CCCCC/C=C/C(=O)CCc1ccc(O)c(OC)c1
stdout: 0.94

stdin: Give the reported concentration at 0.167 h for this compound. CCCCCCCCCC(O)CC(=O)CCc1ccc(O)c(OC)c1 (stereo not shown) [10G, 10-gingerol]
stdout: 5.66

I: CCCCC[C@H](O)CC(=O)CCc1ccc(O)c(OC)c1
II: CCCCCCCC(O)CC(=O)CCc1ccc(O)c(OC)c1 (stereo not shown)
stdin: Compare reported concentration at 0.167 h values for I and II . Which is lower? When you have decided, please share the label of that item.
stdout: II
(II: 0.63 ng/mL, I: 5.71 ng/mL)

###

- Test Protocol: Mouse pharmacokinetic study of oral GE with and without ketoconazole, plasma with and without β-glucuronidase treatment
- Type: in vivo, male mice (C57BL6J)
- Condition Description: GE administered group, mouse plasma; 0.5 h
Parameter Measured: Concentration Ratio (Total/Free) of GE Phenolics

1: CCCCC/C=C/C(=O)CCc1ccc(O)c(OC)c1 [6S, 6-shogaol]
2: CCCCCCCC(O)CC(=O)CCc1ccc(O)c(OC)c1 (stereo not shown) [8G, 8-gingerol]
3: CCCCC[C@H](O)CC(=O)CCc1ccc(O)c(OC)c1 [6G, 6-gingerol]
4: CCCCCCCCCC(O)CC(=O)CCc1ccc(O)c(OC)c1 (stereo not shown) [10G, 10-gingerol]
stdin: Write the entries in order, lowest recorded Concentration Ratio (Total/Free) of GE Phenolics first. Use the labels to give the requested order.
stdout: 4, 1, 2, 3
(4: 13, 1: 83, 2: 948, 3: 8723)

###

Reported solubility at 2 h values are given for each entry in this list.
- Test Protocol: pH dependent kinetic solubility in hydrochloride, citrate and phosphate buffers
- Type: physicochemical
- Condition Description: 100 mM phosphate buffer, 23 °C, aqueous buffer, kinetic from dmso stock; pH 7.4, phosphate buffer; tested 10 to 100 µM; n = 2

stdin: Give the reported solubility at 2 h for this compound. CCCCC/C=C/C(=O)CCc1ccc(O)c(OC)c1
stdout: < 10 µM

stdin: Give the reported solubility at 2 h for this compound. CCCCCCCC(O)CC(=O)CCc1ccc(O)c(OC)c1 (stereo not shown)
stdout: > 100 µM

stdin: Give the reported solubility at 2 h for this compound. CCCCC[C@H](O)CC(=O)CCc1ccc(O)c(OC)c1
stdout: > 100 µM

Further cases:
stdin: Give the reported solubility at 2 h for this compound. CCCCCCCCCC(O)CC(=O)CCc1ccc(O)c(OC)c1 (stereo not shown) [10G, 10-gingerol]
stdout: < 10 µM

###

- Test Protocol: Mouse pharmacokinetic study of oral GE with and without ketoconazole, plasma with and without β-glucuronidase treatment
- Type: in vivo, male mice (C57BL6J)
- Condition Description: male, C57BL6J; mouse plasma; 250 mg/kg GE oral; 3 h; −βgd
Parameter Measured: concentration at 3 h (ng/mL)

I: CCCCC[C@H](O)CC(=O)CCc1ccc(O)c(OC)c1
II: CCCCCCCCCC(O)CC(=O)CCc1ccc(O)c(OC)c1 (stereo not shown) [10G, 10-gingerol]
III: CCCCC/C=C/C(=O)CCc1ccc(O)c(OC)c1
IV: CCCCCCCC(O)CC(=O)CCc1ccc(O)c(OC)c1 (stereo not shown)
stdin: Write the entries in order, lowest recorded concentration at 3 h first. Use the labels to give the requested order.
stdout: III, IV, I, II
